Test system: Escherichia coli
Assay: Minimum inhibitory concentration against Escherichia coli H560 in vitro.
Assay type: functional
property: MIC (µg/mL)

| molecule | quantitative.result |
| --- | --- |
| Cl.Nc1c(N2CCC(N)C2)c(F)cc2c(=O)c(C(=O)O)cn(C3CC3)c12 (stereo not given) | 0.1 |
| O=C(O)c1cn(C2CC2)c2nc(N3CCNCC3)c(F)cc2c1=O | 0.05 |
| CCNCC1CCN(c2c(F)cc3c(=O)c(C(=O)O)cn(C4CC4)c3c2Cl)C1 (stereo not given) | 0.025 |
| CCNCC1CCN(c2nc3c(cc2F)c(=O)c(C(=O)O)cn3C2CC2)C1 (stereo not given) | 0.05 |
| CCNCC1CCN(c2c(F)cc3c(=O)c(C(=O)O)cn(C4CC4)c3c2F)C1 (stereo not given) [PD-117558] | 0.025 |
